I'd be grateful if you could share measured HCT for these entries.
test: Hematology assays in cynomolgus monkeys (Example 46); format: in vivo; details: Day 31
Strand notation (5' to 3'): a small letter for the sugar, then the base; units joined by * are phosphorothioate-linked, units joined directly phosphodiester-linked; [ ] holds rarer units or linkages, { } end groups; capitals alone tell only the bases. e = 2'-O-(2-methoxyethyl) (MOE); [5mC] = 5-methylcytosine; d = 2'-deoxy (DNA)
Number in %, nothing else.

# lookup: HCT of ISIS 449710: 3-8-3, 4-8-4, 2-10-2, 3-10-3 or 4-10-4 MOE microwalk gapmer (Table 46) (antisense e[5mC]*eA*e[5mC]*dA*dG*dT*dT*dT*d[5mC]*dT*dG*dG*d[5mC]*eA*eG*eG) 44

Another substance: ISIS 445522: 5-8-5 or 6-8-6 MOE microwalk gapmer (Table 44) (antisense eG*e[5mC]*eA*e[5mC]*eA*dG*dT*dT*dT*d[5mC]*dT*dG*dG*e[5mC]*eA*eG*eG*e[5mC]) 43

Another substance: ISIS 449711: 3-8-3, 4-8-4, 2-10-2, 3-10-3 or 4-10-4 MOE microwalk gapmer (Table 46) (antisense eA*e[5mC]*dA*dG*dT*dT*dT*d[5mC]*dT*dG*dG*d[5mC]*eA*eG) 39

Another substance: ISIS 449709: 3-8-3, 4-8-4, 2-10-2, 3-10-3 or 4-10-4 MOE microwalk gapmer (Table 46) (antisense eG*e[5mC]*eA*e[5mC]*dA*dG*dT*dT*dT*d[5mC]*dT*dG*dG*d[5mC]*eA*eG*eG*e[5mC]) 42

* * *

system: IL-1β, IL-6, IFN-γ, TNF-α, IL-8, MIP-1α, MCP-1, MIP-1β, RANTES; test: Cytokine and chemokine assays in cynomolgus monkeys (Example 46); assay type: in vivo; details: day 55
Strand notation (5' to 3'): a small letter for the sugar, then the base; units joined by * are phosphorothioate-linked, units joined directly phosphodiester-linked; [ ] holds rarer units or linkages, { } end groups; capitals alone tell only the bases. e = 2'-O-(2-methoxyethyl) (MOE); [5mC] = 5-methylcytosine; d = 2'-deoxy (DNA)
I'd be grateful if you could share measured MIP-1α level for these entries.
Number in pg/mL, nothing else.

# lookup: MIP-1α level of ISIS 445531: 5-8-5 or 6-8-6 MOE microwalk gapmer (Table 44) (antisense eG*eG*e[5mC]*eA*eT*dT*dG*dG*dT*dG*d[5mC]*dA*d[5mC]*eA*eG*eT*eT*eT) 12

Another substance: ISIS 416858: MOE gapmer, nucleobases 1275 to 1318 of SEQ ID NO: 1 (Table 8) (antisense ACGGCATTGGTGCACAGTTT; MOE gapmer, wing and gap sizes not given here) 11

Another substance: ISIS 449707: 3-8-3, 4-8-4, 2-10-2, 3-10-3 or 4-10-4 MOE microwalk gapmer (Table 46) (antisense e[5mC]*eA*e[5mC]*eA*dG*dT*dT*dT*d[5mC]*dT*dG*dG*e[5mC]*eA*eG*eG) 12

Another substance: ISIS 449711: 3-8-3, 4-8-4, 2-10-2, 3-10-3 or 4-10-4 MOE microwalk gapmer (Table 46) (antisense eA*e[5mC]*dA*dG*dT*dT*dT*d[5mC]*dT*dG*dG*d[5mC]*eA*eG) 17
